Documented IC50 across a set of compounds
Test: Cytotoxicity against human DWD cells
Assay type: functional, cell-based
Please reply with the bare figure in µM and do not write the unit itself.

compound="COc1cccc2c1C(=O)c1c(O)c3c(c(O)c1C2=O)C[C@@](O)(C(=O)CO)C[C@@H]3O[C@H]1C[C@H](N)[C@H](O)[C@H](C)O1 [DOXORUBICIN]" observed_value=24.9

Which IC50 value is on record for "COc1cc2c(cc1OCCCCCN1CCN(C3=NS(=O)(=O)c4ccccc4N3C(C)C)CC1)N=C[C@@H]1CCCN1C2=O" ?
27.7

----------
System: DNA
Assay: Binding affinity to calf thymus DNA at 20 uM after 36 hrs by thermal denaturation assay
Format: nucleic-acid assay
Settings: Bos taurus
With a cut-off of 4 °C, any ΔTm strictly below it is called class 1; any ΔTm meeting it or above is called class 0.

Field: example entries. Status: answers known.
chem_smiles=COc1cc2c(cc1OCCCCCN1CCN(C3=NS(=O)(=O)c4ccccc4N3c3ccccc3)CC1)N=C[C@@H]1CCCN1C2=O cat="class 0"
chem_smiles=COc1cc2c(cc1OCCCCN1CCN(C3=NS(=O)(=O)c4ccccc4N3C(C)C)CC1)N=C[C@@H]1CCCN1C2=O cat="class 0"
chem_smiles=COc1cc2c(cc1O)N=C[C@@H]1CCCN1C2=O cat="class 1"

Now consider a different compound.
Please state whether ΔTm is below 4 °C for "COc1cc2c(cc1OCCCCCN1CCN(C3=NS(=O)(=O)c4ccccc4N3C(C)C)CC1)N=C[C@@H]1CCCN1C2=O"
class 0
